Reference for the values: patent US20260209362A1

Test Target: T1, biotinylated recombinant human IL-12Rβ2 (human, UniProt Q99665 24-622, random biotinylated)
T1 construct: Recombinant protein produced in-house, biotinylated; also called hIL-12RB2; human IL-12RB2
T1 sequence: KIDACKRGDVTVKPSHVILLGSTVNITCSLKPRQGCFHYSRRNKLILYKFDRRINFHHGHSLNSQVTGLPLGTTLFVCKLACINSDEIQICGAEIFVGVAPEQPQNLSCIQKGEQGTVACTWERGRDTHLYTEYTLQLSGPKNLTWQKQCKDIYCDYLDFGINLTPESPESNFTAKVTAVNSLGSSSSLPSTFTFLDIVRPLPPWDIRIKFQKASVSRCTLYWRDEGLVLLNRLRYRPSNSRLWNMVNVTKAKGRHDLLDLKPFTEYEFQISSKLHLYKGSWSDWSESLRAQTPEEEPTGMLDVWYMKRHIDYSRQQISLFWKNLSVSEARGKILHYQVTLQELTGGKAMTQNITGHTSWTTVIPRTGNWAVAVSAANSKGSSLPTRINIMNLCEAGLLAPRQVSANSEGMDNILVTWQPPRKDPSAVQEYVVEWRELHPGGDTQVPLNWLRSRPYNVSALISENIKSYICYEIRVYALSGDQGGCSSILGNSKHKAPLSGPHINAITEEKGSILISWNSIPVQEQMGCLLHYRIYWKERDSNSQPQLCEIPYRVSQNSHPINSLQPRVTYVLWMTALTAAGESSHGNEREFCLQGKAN
Procedure Text: ELISA, periplasmic extract on biotinylated hIL-12Rβ2, signal over control wells
Reported ELISA binding hIL-12RB2/control values are given for each entry in this list.
Give just the numeric value; ratio need not be written.

These recorded examples may help you get a feel for the data.
Prompt: Given the binder anti-IL-12Rβ2 VHH clone 20524 (VHH, not shown: small tags and cut ends, tested as periplasmic extract; also called 3CRMS14) VHH: QVQLQESGGGLVQAGGSLRLSCTASGSIFAIDDMYWYRQAPGKQREFVAYITATNSANYLDPVNGRFTISRDNAKNSVYLQMNSLKPEDTAVYYCNAKQIVGFQIDEYWGQGTQVTVSS , write its reported ELISA binding hIL-12RB2/control.
Completion: 0.93

Prompt: Given the binder anti-IL-12Rβ2 VHH clone 20530 (VHH, not shown: small tags and cut ends, tested as periplasmic extract; also called 2CAMS7) VHH: QVQLQESGGGLVQAGDSLRLSCAASGRTFSNYNMGWLRQAPGKEREFVTGISSAGSWIGDITSYADSVKGRFTISRDNAKNILYLQMNSLKPEDTAVYYCAAAYHGSRYYVGSTANEYTTWGQGTQVTVSS , write its reported ELISA binding hIL-12RB2/control.
Completion: 0.847

Prompt: Given the binder anti-IL-12Rβ2 VHH clone 20467 (VHH, not shown: small tags and cut ends, tested as periplasmic extract; also called 2CAM3) VHH: QVQLQESGGGLVQAGGSLRLSCAPSGRTFSTLAMAWFRQAPGKEREVVATISWSGGRTYYADSVKGRFTISRDNAKNTAYLQMNSLRPDDTAVYYCAARGSDYGSYDYWGQGTQVTVSS , write its reported ELISA binding hIL-12RB2/control.
Completion: 1.04

Prompt: Given the binder anti-IL-12Rβ2 VHH clone 20478 (VHH, not shown: small tags and cut ends, tested as periplasmic extract; also called 2CAM30) VHH: QVQLQESGGGLVQAGGSLTLSCAASGMPISFNVLGWFRQIPGKERDFVAAISRDARITDYADSVKGRFTISRDNVKNTVYLQMNSLNPEDTAVYFCAAAYTYSGSHYVTARSSDYHSWGQGTQVTVSS , write its reported ELISA binding hIL-12RB2/control.
Completion: 1.02

Prompt: Given the binder anti-IL-12Rβ2 VHH clone 20455 (VHH, not shown: small tags and cut ends, tested as periplasmic extract; also called 3CRM6) VHH: QVQLQESGGGLVQPGGSLRLSCTASGSIFAIDDMYWYRQAPGKQREFVAYITATNSANYLDSVNGRFTISRDNAKNSVYLQMNSLKPEDTAVYYCNTKQIVGFQIDEYWGQGTQVTVSS , write its reported ELISA binding hIL-12RB2/control.
Completion: 1.4

More entries:
Prompt: Given the binder anti-IL-12Rβ2 VHH clone 20499 (VHH, not shown: small tags and cut ends, tested as periplasmic extract; also called 2CAM75) VHH: QVQLQESGGGLVQAGGSLRLSCAASGRTFSSYGMGWFRQAPGKEREFVAAISRDASITDYADSVKGRFTISRDNAKNTAYLEMNSLNPEDTAVYFCAAAYTYSGSHYVTARSSDYHSWGQGTQVTVSS , write its reported ELISA binding hIL-12RB2/control.
Completion: 0.985

Prompt: Given the binder anti-IL-12Rβ2 VHH clone 20529 (VHH, not shown: small tags and cut ends, tested as periplasmic extract; also called 3CRMS94) VHH: QVQLQESGGGSVQAGDSLRLSCTASGSIFAIDDMYWYRQAPGKQREFVAYITATNSANYLDSVNGRFTISRDNAKNSVYLQMNSLKPEDTAVYYCNAKQIVGFQIDEYWGQGTQVTVSS , write its reported ELISA binding hIL-12RB2/control.
Completion: 0.858

Prompt: Given the binder anti-IL-12Rβ2 VHH clone 20452 (VHH, not shown: small tags and cut ends, tested as periplasmic extract; also called 2CRM84) VHH: QVQLQESGGGLVQAGGSLRLSCAASGFAFSSVAMSWVRQAPGKGLEWVSSISSGGHDTNYANSVKGRFTISRDNAKNTLYLQMNSLKPEDTAVYYCAKSSRNYSPPGQGTQVTVSS , write its reported ELISA binding hIL-12RB2/control.
Completion: 0.989
